tested.target: T1, Hse1, P38753
T1 sequence (P38753 208-285, looked up): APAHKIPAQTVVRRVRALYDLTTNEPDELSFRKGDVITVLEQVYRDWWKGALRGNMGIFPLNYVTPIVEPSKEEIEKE
experiment.description: SPOT array
conditions: median of control spots 1727
parameter: SPOT intensity

VKPRQLFPIPLNKVD	0
TPRLSLPRLPNKHHW	30

P = VRTRRRPPPPPIPST
Q = KRKRFNLLLPKPYLT
Compare P and Q by numeric SPOT intensity and name the larger one. API: response body contains the label of the selected item.
P

The measured values listed here are drawn from paper PMC2756588.
